// data source = patent US9278068B2

- Test system: HeLa cells
- method-summary: MTT assay for cytotoxicity
- settings: 40 nM, 2 h
experimental-endpoint: MTT (% Cell Survival) 40 nM (%)
Entry rule: numbers only, all in %.

Worked examples follow.
C=C(B(O)O)c1ccccc1 [1-phenylvinylbornic acid]    66.08
OB(O)c1ccnc(Cl)c1 [2-chloropyridine-4-boronic acid]    84.93
O=C(O)c1cc(B(O)O)cc([N+](=O)[O-])c1 [3-carboxy-5-nitrophenylboronic acid]    54.3094
O=Cc1cc(B(O)O)cs1 [5-formylthiophene-3-boronic acid]    86.87
CN(C)c1ccc(B(O)O)cc1 [4-(dimethylamino)phenylboronic acid]    78.59

Moving on to another compound below.
Noted for OB(O)c1cscc1Br [3-bromothiophene-4-boronic acid] : its MTT (% Cell Survival) 40 nM reads 76.45

====

We begin with a simple list: items and their reported MTT (% Cell Survival) 160 nM.
- Test system: HeLa cells
- method-summary: MTT assay for cytotoxicity
- settings: 160 nM, 2 h
Entry rule: numbers only, all in %.

OB(O)c1c(F)c(F)c(F)c(F)c1F    50.98
N#Cc1ccc(B(O)O)s1    44.78
O=Cc1cc(B(O)O)cs1    73.80
CN(C)S(=O)(=O)c1ccccc1B(O)O    47.32
OB(O)c1cccnc1Br    87.88
OB(O)c1cccc2c1oc1ccccc12    70.50

Noted for CC(=O)c1ccc(B(O)O)s1 : its MTT (% Cell Survival) 160 nM reads 51.27

Noted for O=c1[nH]cc(B(O)O)c(=O)[nH]1 : its MTT (% Cell Survival) 160 nM reads 28.07

Noted for N#Cc1ccccc1B(O)O : its MTT (% Cell Survival) 160 nM reads 60.33

Noted for OB(O)/C=C/c1ccccc1 [trans-2-Phenylvinylboronic acid] : its MTT (% Cell Survival) 160 nM reads 65.87

Noted for CCS(=O)(=O)c1ccc(B(O)O)cc1 : its MTT (% Cell Survival) 160 nM reads 37.46

Noted for CCCOc1ccccc1B(O)O : its MTT (% Cell Survival) 160 nM reads 41.95

Noted for O=Cc1ccc(B(O)O)o1 : its MTT (% Cell Survival) 160 nM reads 50.14

Noted for NC(=O)c1cccc(B(O)O)c1 : its MTT (% Cell Survival) 160 nM reads 29.19

Noted for OB(O)c1cc2cc(Br)ccc2s1 : its MTT (% Cell Survival) 160 nM reads 90.42

Noted for OB(O)c1cncc(Br)c1 : its MTT (% Cell Survival) 160 nM reads 30.04

Noted for CC(C)(C)Oc1ncc(B(O)O)c(OC(C)(C)C)n1 : its MTT (% Cell Survival) 160 nM reads 71.81

Noted for O=C(Cl)c1ccc(B2OB(c3ccc(C(=O)Cl)cc3)OB(c3ccc(C(=O)Cl)cc3)O2)cc1 [4-chlorocarbonylphenylboronic anhydride] : its MTT (% Cell Survival) 160 nM reads 79.46

Noted for OB(O)c1cccc2cnccc12 : its MTT (% Cell Survival) 160 nM reads 41.69

Noted for OB(O)c1cccc(OCc2ccccc2)c1 : its MTT (% Cell Survival) 160 nM reads 28.92

====

- Tested on: HeLa cells
- method-summary: MTT assay for cytotoxicity
- settings: 40 nM, 2 h
Mark 0.0 for MTT (% Cell Survival) 40 nM values under 80%, and 1.0 for everything at or above.

For orientation, consider the following solved cases.
NC(=O)c1cccc(B(O)O)c1    1.0
CN(C)S(=O)(=O)c1ccccc1B(O)O    0.0
OB(O)c1ccc(-c2ccccc2)s1    1.0
OB(O)c1cccc(O)c1 [3-hydroxyphenylboronic acid]    1.0
CC(C)[Si](C(C)C)(C(C)C)n1ccc(B(O)O)c1    0.0
N#Cc1ccccc1B(O)O    1.0
OB(O)c1cccc(Cl)c1    1.0
OB(O)c1ccc(Br)nc1    1.0
OB(O)C1=CCCC1    1.0
COc1cccc(OC)c1B(O)O    1.0

Lab note: next compound to report on.
Decide: MTT (% Cell Survival) 40 nM of OB(O)/C=C/c1ccccc1 [trans-2-Phenylvinylboronic acid] >= 80%? 0.0
